# MEASURED_TARGET: T1, human IL-18BP (human, UniProt O95998 31-194)
# T1 construct: UniProt printed as 095998; also called hIL-18BP
# T1 sequence: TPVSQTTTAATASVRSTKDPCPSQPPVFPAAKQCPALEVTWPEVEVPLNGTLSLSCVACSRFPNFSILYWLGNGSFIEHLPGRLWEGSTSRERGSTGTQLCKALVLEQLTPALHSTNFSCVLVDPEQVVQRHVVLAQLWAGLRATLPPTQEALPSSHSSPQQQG
# ASSAY_SUMMARY: BLI, apparent KD
pKd: −log10 of the molar value.
QUANTITY_NAME: pKd

[
  {
    "BINDER": "SA301a HC-G97L (antibody, name in Kabat numbering, V domains shown, IgG1 kappa) VH: QVQLQESGPGLVKPSQTLSLTCTVSGYSITSDYNSHWIRQPPGKGLEWIGYIHYSGSTNYNPSLKSRVTISRDTSKNQFSLKLSSVTAADTAVYYCARNYLSIYVNYFDYWGQGTLVTVSS VL: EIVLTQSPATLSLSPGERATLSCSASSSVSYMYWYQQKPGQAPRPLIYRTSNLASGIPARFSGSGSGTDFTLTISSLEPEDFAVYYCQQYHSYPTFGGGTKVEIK",
    "QUANTITY_NAME": "pKd",
    "MEASURED_NUMBER": 8.43
  },
  {
    "BINDER": "SA301a HC-S98G (antibody, name in Kabat numbering, V domains shown, IgG1 kappa) VH: QVQLQESGPGLVKPSQTLSLTCTVSGYSITSDYNSHWIRQPPGKGLEWIGYIHYSGSTNYNPSLKSRVTISRDTSKNQFSLKLSSVTAADTAVYYCARNYGGIYVNYFDYWGQGTLVTVSS VL: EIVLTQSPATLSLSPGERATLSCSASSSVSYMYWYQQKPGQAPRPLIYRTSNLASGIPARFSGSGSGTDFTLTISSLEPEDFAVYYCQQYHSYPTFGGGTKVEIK",
    "QUANTITY_NAME": "pKd",
    "MEASURED_NUMBER": 8.59
  },
  {
    "BINDER": "SA301a HC-G97I (antibody, name in Kabat numbering, V domains shown, IgG1 kappa) VH: QVQLQESGPGLVKPSQTLSLTCTVSGYSITSDYNSHWIRQPPGKGLEWIGYIHYSGSTNYNPSLKSRVTISRDTSKNQFSLKLSSVTAADTAVYYCARNYISIYVNYFDYWGQGTLVTVSS VL: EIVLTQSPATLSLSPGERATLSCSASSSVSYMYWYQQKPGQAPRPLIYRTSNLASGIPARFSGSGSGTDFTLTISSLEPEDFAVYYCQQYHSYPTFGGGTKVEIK",
    "QUANTITY_NAME": "pKd",
    "MEASURED_NUMBER": 8.11
  },
  {
    "BINDER": "SA301a HC-Y96N (antibody, name in Kabat numbering, V domains shown, IgG1 kappa) VH: QVQLQESGPGLVKPSQTLSLTCTVSGYSITSDYNSHWIRQPPGKGLEWIGYIHYSGSTNYNPSLKSRVTISRDTSKNQFSLKLSSVTAADTAVYYCARNNGSIYVNYFDYWGQGTLVTVSS VL: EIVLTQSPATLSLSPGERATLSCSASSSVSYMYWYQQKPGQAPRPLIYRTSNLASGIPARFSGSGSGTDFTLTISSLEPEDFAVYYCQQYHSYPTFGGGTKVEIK",
    "QUANTITY_NAME": "pKd",
    "MEASURED_NUMBER": 8.55
  },
  {
    "BINDER": "SA301a HC-G97D (antibody, name in Kabat numbering, V domains shown, IgG1 kappa) VH: QVQLQESGPGLVKPSQTLSLTCTVSGYSITSDYNSHWIRQPPGKGLEWIGYIHYSGSTNYNPSLKSRVTISRDTSKNQFSLKLSSVTAADTAVYYCARNYDSIYVNYFDYWGQGTLVTVSS VL: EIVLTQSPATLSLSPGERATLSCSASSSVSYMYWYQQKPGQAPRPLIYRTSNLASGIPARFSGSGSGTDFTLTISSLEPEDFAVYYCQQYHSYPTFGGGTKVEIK",
    "QUANTITY_NAME": "pKd",
    "MEASURED_NUMBER": 9.34
  }
]
